# System: IgE production
# protocolDescription: Test 4: inhibition of IgE production by spleen cells of orally treated sensitized mice
# Type: in vivo, Balb/c mouse
# conditionsUsed: Mus musculus, po, 100 mg/kg orally once a day, Day 1 to Day 10, DNP-BSA 5 μg/ml, 24 hours, read-out: Inhibition rate of IgE production
Where a name gives a salt, the structure may show the parent alone.
// NO strictly below 30% in inhibition at 100 mg/kg; YES otherwise

Known results for compounds:
compound | qualitativeLabel
CCCCCC(=O)/C=C/c1cc(OCCCCCC(=O)OC)c(OC)cn1 | NO
CCOC(=O)CCCCCOc1cc(/C=C/C(=O)C2CCCCC2)ncc1OC | YES
COC(=O)c1ccc(COc2cc(/C=C/C(=O)c3ccccc3OC)ncc2OC)cc1 | YES
O=C(/C=C/c1cc(O)c(O)cn1)c1ccccc1 | NO
COc1cnc(/C=C/C(=O)c2ccccc2)cc1OC | YES

Lookup: Given the entry CCOC(=O)CCCOc1cc(/C=C/C(=O)c2c(OC)cccc2OC)ncc1OC [Ex. 86, hydrochloride] , answer whether its inhibition at 100 mg/kg meets or surpasses 30%.
Found: YES
